# system.tested: Serine/threonine-protein kinase ULK1 (Homo sapiens); note: in the data inactive means no Kd found up to 30 µM
# Sequence (O75385 whole entry): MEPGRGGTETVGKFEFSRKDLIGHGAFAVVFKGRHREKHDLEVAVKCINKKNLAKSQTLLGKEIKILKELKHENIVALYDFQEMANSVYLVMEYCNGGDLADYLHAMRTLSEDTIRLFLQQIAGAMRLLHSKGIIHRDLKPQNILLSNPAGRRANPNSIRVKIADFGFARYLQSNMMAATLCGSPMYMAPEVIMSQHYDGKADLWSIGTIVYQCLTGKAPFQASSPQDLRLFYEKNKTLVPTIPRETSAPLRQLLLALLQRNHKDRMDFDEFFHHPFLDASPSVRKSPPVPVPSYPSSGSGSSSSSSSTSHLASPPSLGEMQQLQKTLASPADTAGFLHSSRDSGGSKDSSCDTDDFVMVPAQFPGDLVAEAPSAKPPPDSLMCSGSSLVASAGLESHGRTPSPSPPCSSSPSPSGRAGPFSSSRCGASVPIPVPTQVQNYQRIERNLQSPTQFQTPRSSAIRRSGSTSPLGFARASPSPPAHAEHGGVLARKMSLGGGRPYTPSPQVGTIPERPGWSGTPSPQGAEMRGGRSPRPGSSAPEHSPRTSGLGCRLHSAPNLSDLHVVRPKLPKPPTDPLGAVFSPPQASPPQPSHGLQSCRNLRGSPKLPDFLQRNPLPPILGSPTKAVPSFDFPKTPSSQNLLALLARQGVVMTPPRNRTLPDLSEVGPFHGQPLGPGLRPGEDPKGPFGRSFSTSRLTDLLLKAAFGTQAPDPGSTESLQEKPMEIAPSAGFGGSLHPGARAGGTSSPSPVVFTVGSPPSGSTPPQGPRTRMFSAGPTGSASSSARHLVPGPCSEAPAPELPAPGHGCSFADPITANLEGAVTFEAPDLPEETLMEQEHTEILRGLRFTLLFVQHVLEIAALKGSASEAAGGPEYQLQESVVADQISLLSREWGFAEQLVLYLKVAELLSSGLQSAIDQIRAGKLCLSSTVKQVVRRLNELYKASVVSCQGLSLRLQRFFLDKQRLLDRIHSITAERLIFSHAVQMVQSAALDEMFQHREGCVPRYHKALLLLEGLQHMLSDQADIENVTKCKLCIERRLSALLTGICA
Calls of active or inactive are those of the source.
Choose one outcome from this list and give only that: yes for active, no for inactive

Past entries and their recorded results:
# molecule, system.tested, assigned.label
measured = [
    ("CN1CCN(c2nc(C3=C(c4c[nH]c5ccccc45)C(=O)NC3=O)c3ccccc3n2)CC1 [SOTRASTAURIN]", "Serine/threonine-protein kinase ULK1 (Homo sapiens)", "no"),
    ("C[C@@H]1COC(Nc2ccc3ncnc(Nc4ccc(OCc5nccs5)c(Cl)c4)c3c2)=N1 [VARLITINIB]", "Serine/threonine-protein kinase ULK1 (Homo sapiens)", "no"),
    ("FC(F)(F)c1ccc(CNc2ccc(Cc3c[nH]c4ncc(Cl)cc34)cn2)cn1 [PEXIDARTINIB]", "Serine/threonine-protein kinase ULK1 (Homo sapiens)", "no"),
]

What call does the record list for COc1cc2ncnc(Nc3ccc(F)c(Cl)c3)c2cc1NC(=O)/C=C/CN1CCCCC1 [DACOMITINIB ANHYDROUS] ? no

====

The source made the active and inactive calls.
# Cyclin-dependent kinase 3 (Homo sapiens): Kd values follow; note: in the data inactive means no Kd found up to 30 µM
# Sequence (Q00526 whole entry): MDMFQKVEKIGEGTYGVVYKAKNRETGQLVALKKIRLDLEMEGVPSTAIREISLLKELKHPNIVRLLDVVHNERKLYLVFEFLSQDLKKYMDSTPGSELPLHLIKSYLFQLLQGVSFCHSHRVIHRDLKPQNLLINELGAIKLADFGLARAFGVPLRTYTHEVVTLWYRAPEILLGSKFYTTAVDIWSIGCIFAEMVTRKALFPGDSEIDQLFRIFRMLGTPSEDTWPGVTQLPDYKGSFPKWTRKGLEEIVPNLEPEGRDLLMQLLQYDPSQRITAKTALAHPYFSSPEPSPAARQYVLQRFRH

# smiles.text, recorded.endpoint, assay.result
records = [
    ("CNC(=O)c1ccc(Nc2ncc(C(F)(F)F)c(NCc3nccnc3N(C)S(C)(=O)=O)n2)cc1", "Kd", "> 30 µM (inactive)"),
]

For this compound ( `C=CCN(/C=C1/C(=O)O[C@H](COC)[C@@]2(C)C1=C(O)C(=O)C1=C2[C@H](OC(C)=O)C[C@]2(C)C(=O)CC[C@@H]12)CC=C` ), measured Kd is > 30 µM (inactive)

For this compound ( `Cc1cc(-c2cc(OC(=O)c3ccccc3)ccc2Cl)cc2nnc(Nc3ccc(OCCN4CCCC4)cc3)nc12` ), measured Kd is > 30 µM (inactive)

For this compound ( `Cc1cc(Nc2nc(N[C@@H](C)c3ncc(F)cn3)ncc2Cl)n[nH]1` ), measured Kd is 0.942 µM

====

# system.tested: Cyclin-dependent kinase 13 (Homo sapiens, UniProt Q14004); note: in the data inactive means no Kd found up to 30 µM
# Sequence (Q14004 whole entry): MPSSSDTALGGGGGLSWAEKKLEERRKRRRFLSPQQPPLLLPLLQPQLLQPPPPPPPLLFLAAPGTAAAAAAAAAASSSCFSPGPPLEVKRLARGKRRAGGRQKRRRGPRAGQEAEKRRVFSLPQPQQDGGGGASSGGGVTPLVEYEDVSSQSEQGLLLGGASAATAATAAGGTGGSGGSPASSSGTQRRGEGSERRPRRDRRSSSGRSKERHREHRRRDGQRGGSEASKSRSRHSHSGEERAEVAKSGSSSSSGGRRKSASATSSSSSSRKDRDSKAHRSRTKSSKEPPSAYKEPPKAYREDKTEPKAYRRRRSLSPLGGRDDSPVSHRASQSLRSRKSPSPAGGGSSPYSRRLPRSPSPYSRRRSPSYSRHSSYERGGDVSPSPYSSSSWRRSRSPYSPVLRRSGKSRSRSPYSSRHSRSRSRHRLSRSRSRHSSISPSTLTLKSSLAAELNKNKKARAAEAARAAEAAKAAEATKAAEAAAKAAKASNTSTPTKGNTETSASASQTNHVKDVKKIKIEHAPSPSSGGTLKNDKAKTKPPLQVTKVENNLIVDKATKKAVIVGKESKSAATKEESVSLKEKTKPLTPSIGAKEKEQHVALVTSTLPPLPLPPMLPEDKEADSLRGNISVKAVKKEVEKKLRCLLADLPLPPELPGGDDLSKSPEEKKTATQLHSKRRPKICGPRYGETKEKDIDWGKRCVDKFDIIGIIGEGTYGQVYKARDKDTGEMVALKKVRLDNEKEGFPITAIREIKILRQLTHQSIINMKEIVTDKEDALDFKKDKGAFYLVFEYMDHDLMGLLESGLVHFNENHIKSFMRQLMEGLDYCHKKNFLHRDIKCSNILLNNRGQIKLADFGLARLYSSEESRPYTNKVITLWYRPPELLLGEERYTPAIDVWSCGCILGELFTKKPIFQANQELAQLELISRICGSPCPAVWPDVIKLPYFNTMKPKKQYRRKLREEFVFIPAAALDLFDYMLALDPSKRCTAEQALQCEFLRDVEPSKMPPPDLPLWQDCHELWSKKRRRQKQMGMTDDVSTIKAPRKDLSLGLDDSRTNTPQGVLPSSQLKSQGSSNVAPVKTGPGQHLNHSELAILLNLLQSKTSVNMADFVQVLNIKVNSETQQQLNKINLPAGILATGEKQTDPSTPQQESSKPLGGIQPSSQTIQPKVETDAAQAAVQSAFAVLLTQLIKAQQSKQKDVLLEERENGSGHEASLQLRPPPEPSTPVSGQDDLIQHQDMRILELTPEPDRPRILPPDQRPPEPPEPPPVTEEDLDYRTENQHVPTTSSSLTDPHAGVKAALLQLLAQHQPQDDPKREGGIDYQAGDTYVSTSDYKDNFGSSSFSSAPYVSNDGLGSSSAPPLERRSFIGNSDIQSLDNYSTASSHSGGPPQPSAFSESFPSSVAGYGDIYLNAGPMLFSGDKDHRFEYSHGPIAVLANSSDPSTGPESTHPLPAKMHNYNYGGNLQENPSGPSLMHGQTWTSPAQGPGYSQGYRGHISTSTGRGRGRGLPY
Activity calls are given as the source filed them.
Choose one outcome from this list and give only that: active, inactive

What call does the record list for `Cn1c(=O)n(-c2ccc(C(C)(C)C#N)cc2)c2c3cc(-c4cnc5ccccc5c4)ccc3ncc21` ? inactive

What call does the record list for `O=C(O)c1ccc2c(c1)nc(Nc1cccc(Cl)c1)c1ccncc12` ? inactive

What call does the record list for `C#Cc1cccc(Nc2ncnc3cc4c(cc23)OCCOCCOCCO4)c1` ? inactive

What call does the record list for `COc1cccc(Nc2ncnn3ccc(CN4CC[C@@H](N)[C@H](O)C4)c23)c1` ? inactive

What call does the record list for `O=C(NOC[C@H](O)CO)c1ccc(F)c(F)c1Nc1ccc(I)cc1F` ? inactive

What call does the record list for `S=C(NCc1ccc2c(c1)OCO2)N1CCN(c2ncnc3c2oc2ccccc23)CC1` ? inactive

What call does the record list for `FC(F)(F)c1ccc(CNc2ccc(Cc3c[nH]c4ncc(Cl)cc34)cn2)cn1` ? inactive

====

# system.tested: Tyrosine-protein kinase HCK (Homo sapiens, UniProt P08631); note: in the data inactive means no Kd found up to 30 µM
# Sequence (P08631 whole entry): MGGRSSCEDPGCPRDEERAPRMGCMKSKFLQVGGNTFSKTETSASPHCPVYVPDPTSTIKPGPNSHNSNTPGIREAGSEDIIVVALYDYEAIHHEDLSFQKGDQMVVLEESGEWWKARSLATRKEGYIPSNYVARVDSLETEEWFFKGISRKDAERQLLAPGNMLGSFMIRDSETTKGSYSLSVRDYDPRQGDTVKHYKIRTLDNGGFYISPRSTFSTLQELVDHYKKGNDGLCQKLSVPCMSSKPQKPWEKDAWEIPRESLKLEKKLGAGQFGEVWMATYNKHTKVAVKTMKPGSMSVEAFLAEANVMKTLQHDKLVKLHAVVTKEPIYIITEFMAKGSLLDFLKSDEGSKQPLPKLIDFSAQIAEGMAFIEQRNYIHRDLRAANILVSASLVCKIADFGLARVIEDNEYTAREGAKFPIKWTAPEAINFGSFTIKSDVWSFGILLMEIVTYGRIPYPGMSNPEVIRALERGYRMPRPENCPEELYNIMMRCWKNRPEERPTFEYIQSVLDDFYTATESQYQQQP
Activity calls are given as the source filed them.
Choose one outcome from this list and give only that: yes (1) (active), no (0) (inactive)

# molecule, assigned.label
data = [
    ("Cc1ccc(C(=O)Nc2ccc(Oc3cc4cnn(C)c4cc3-c3cn[nH]c3)c(F)c2)c(=O)n1-c1ccc(F)cc1 [MERESTINIB]", "no (0)"),
    ("CCOc1ccn(-c2ccc(F)cc2)c(=O)c1C(=O)Nc1ccc(Oc2ccnc(N)c2Cl)c(F)c1 [BMS-777607]", "no (0)"),
    ("O=S(=O)(c1cccc2c(O)nccc12)N1CCCNCC1 [HYDROXYFASUDIL]", "no (0)"),
    ("O=C(NC[C@H](O)CO)c1ccncc1Nc1ccc(I)cc1F [PIMASERTIB]", "no (0)"),
    ("CC1(COc2ccc3c(c2)ncn3-c2ccc3cccc(N4CCC(N)CC4)c3n2)COC1 [CRENOLANIB]", "no (0)"),
    ("Cn1c(=O)n(-c2ccc(C(C)(C)C#N)cc2)c2c3cc(-c4cnc5ccccc5c4)ccc3ncc21 [DACTOLISIB]", "no (0)"),
]

What call does the record list for C#Cc1cccc(Nc2ncnc3cc4c(cc23)OCCOCCOCCO4)c1 [ICOTINIB] ? no (0)

What call does the record list for COc1cc2ncnc(Nc3ccc(O)cc3)c2cc1OC [WHI-P131] ? no (0)

====

# system.tested: Wee1-like protein kinase (Homo sapiens, UniProt P30291); note: in the data inactive means no Kd found up to 30 µM
# Sequence (P30291 whole entry): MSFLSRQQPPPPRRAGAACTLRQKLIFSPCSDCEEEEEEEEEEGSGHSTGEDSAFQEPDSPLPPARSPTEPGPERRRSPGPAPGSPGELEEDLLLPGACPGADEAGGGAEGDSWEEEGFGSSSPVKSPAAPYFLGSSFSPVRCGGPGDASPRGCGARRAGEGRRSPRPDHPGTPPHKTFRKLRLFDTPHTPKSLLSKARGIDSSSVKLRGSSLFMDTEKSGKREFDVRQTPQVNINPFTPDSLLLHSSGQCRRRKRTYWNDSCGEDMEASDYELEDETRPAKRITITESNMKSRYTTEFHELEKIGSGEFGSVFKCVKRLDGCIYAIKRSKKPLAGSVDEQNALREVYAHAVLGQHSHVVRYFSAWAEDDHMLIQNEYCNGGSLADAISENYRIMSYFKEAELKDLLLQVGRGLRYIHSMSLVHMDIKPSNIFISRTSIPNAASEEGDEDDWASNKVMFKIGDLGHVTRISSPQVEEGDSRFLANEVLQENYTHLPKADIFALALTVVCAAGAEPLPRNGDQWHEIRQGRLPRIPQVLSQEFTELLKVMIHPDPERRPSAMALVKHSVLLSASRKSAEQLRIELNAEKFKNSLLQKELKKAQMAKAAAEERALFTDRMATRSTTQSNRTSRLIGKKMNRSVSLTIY
The source made the active and inactive calls.
Choose one outcome from this list and give only that: yes (1) = active, no (0) = inactive

Past entries and their recorded results:
# molecule, assigned.label
measured = [
    ("Cn1cc(-c2[nH]c3cc(NC(=O)[C@H](N)C4CCCCC4)cc4c3c2C=NNC4=O)cn1", "yes (1)"),
    ("CCOc1ccn(-c2ccc(F)cc2)c(=O)c1C(=O)Nc1ccc(Oc2ccnc(N)c2Cl)c(F)c1", "no (0)"),
    ("C[C@]1(O)C[C@@H](c2nc(-c3ccc4ccc(-c5ccccc5)nc4c3)c3c(N)nccn32)C1", "no (0)"),
]

What call does the record list for `Cc1ccc(C(=O)Nc2ccc(Oc3cc4cnn(C)c4cc3-c3cn[nH]c3)c(F)c2)c(=O)n1-c1ccc(F)cc1` ? no (0)

What call does the record list for COc1cc2ncnc(Nc3ccc(F)c(Cl)c3)c2cc1NC(=O)/C=C/CN1CCCCC1 [DACOMITINIB ANHYDROUS] ? no (0)

What call does the record list for `Cc1cc(C(=O)Nc2cc(Oc3ccc4nc(NC(=O)C5CC5)cn4n3)ccc2C)n(C)n1` ? no (0)

What call does the record list for `CCN1CCN(Cc2ccc(Nc3ncc(F)c(-c4cc(F)c5nc(C)n(C(C)C)c5c4)n3)nc2)CC1` ? no (0)

What call does the record list for `FC(F)(F)c1ccc(CNc2ccc(Cc3c[nH]c4ncc(Cl)cc34)cn2)cn1` ? no (0)

====

# system.tested: Calcium/calmodulin-dependent protein kinase type II subunit gamma (Homo sapiens); note: in the data inactive means no Kd found up to 30 µM
# Sequence (Q13555 whole entry): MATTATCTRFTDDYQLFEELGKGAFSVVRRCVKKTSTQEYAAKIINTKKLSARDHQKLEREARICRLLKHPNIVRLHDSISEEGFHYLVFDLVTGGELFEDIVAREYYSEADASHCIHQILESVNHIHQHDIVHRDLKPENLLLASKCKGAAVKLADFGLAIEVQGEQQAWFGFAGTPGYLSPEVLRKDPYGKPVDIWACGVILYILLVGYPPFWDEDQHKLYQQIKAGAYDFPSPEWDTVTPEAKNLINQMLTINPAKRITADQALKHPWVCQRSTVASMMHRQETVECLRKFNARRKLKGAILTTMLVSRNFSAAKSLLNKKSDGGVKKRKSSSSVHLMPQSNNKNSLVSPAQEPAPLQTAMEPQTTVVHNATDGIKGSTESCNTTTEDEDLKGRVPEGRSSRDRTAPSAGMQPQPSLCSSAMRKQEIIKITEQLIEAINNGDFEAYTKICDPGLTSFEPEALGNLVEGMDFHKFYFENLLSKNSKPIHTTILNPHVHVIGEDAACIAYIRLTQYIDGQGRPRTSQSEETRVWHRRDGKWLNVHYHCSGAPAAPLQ
Active and inactive are the calls of the source.
Choose one outcome from this list and give only that: 1 for active, -1 for inactive

Past entries and their recorded results:
# compound, assigned.label
measured = [
    ("CC1(COc2ccc3c(c2)ncn3-c2ccc3cccc(N4CCC(N)CC4)c3n2)COC1 [CRENOLANIB]", 1),
    ("CNC(=O)c1cccc(-c2ccc3c(N4CCOC[C@@H]4C)nc(N4CCOC[C@@H]4C)nc3n2)c1 [VISTUSERTIB]", -1),
    ("COc1cc2ncnc(Nc3ccc(O)cc3)c2cc1OC [WHI-P131]", -1),
    ("C=CC(=O)Nc1cc(Nc2nccc(-c3cn(C)c4ccccc34)n2)c(OC)cc1N(C)CCN(C)C [OSIMERTINIB]", -1),
    ("O=S(=O)(c1cccc2cnccc12)N1CCCNCC1 [FASUDIL]", -1),
    ("Cc1cc(C(=O)Nc2cc(Oc3ccc4nc(NC(=O)C5CC5)cn4n3)ccc2C)n(C)n1 [TAK-593]", -1),
    ("CNC(=O)c1ccc(Nc2ncc(C(F)(F)F)c(NCc3nccnc3N(C)S(C)(=O)=O)n2)cc1 [DEFACTINIB]", -1),
]

What call does the record list for C=CCN(/C=C1/C(=O)O[C@H](COC)[C@@]2(C)C1=C(O)C(=O)C1=C2[C@H](OC(C)=O)C[C@]2(C)C(=O)CC[C@@H]12)CC=C [SONOLISIB] ? -1
